Where these numbers come from: paper PMC11440508

Molecular target: T1, human neurotensin receptor type 1 (hNTS1R), stably expressed in CHO cells (human, UniProt P30989 1-418)
T1 construct: human neurotensin receptor type 1 (hNTS1R), wild type, stably expressed in Chinese hamster ovary cells; also called CHO-hNTS1R cells; CHO-NTS1R cells; source: CHO cells stably expressing hNTS1R; intact adherent cells, intact suspended cells and membrane preparations
T1 sequence (P30989 whole entry): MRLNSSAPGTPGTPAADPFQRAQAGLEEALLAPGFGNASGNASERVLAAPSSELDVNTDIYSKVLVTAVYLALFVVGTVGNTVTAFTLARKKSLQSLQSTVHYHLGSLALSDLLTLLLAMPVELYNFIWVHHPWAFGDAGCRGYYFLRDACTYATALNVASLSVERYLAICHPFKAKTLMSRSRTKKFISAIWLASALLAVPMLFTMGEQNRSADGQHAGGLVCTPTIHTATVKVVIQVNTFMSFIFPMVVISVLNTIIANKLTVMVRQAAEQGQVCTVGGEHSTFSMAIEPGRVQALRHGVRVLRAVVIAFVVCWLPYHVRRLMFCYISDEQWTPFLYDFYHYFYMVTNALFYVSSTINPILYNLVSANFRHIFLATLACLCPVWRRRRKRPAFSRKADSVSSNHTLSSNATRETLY
Experiment: radioligand binding; saturation binding at membranes of CHO-hNTS1R cells, DPBS1 with 50 μM GppNHp and 100 μg/mL saponin, 23 °C
Conditions: one partner purified
pKd: −log10 of the molar value.

BINDER	pKd
XPRRPYIL (as 13, with a [^3H]propionyl instead of the propionyl group at the N^ω-carbamoylated Arg8; N-terminal 5-TAMRA through a triazolylpropanoyl group; position 6 (X) = pipGly) [[^3H]13, tritiated analogue of the 5-TAMRA-labeled peptide 13]	8.21
